Assign residual activity to each entry below.
- subject of test: MAPK12 (human)
- assay remarks: radiometric filter-binding kinase assay
- conditions: compound 1.0 µM
Entry rule: numbers only, all in %.

Task item: residual activity for `NC(=O)c1cc(-c2ccnc(NC3CCCCC3)c2)nc(N2CCNCC2)c1` ?
Reply: 96

Task item: residual activity for `N#Cc1c(C2CCNCC2)cc(-c2c(O)cccc2OCC2CC2)nc1N` ?
Reply: 94

Task item: residual activity for O=C1Nc2nc(-c3c(O)cccc3OCC3CC3)cc(C3CCCNC3)c2CO1 (centres undefined) ?
Reply: 85

Task item: residual activity for `CCn1c(-c2nonc2N)nc2cncc(CNC3CCNCC3)c21` ?
Reply: 112

Task item: residual activity for `NC1(c2ccc(-c3nc4ccn5c(=O)[nH]nc5c4cc3-c3ccccc3)cc2)CCC1` ?
Reply: 94

Task item: residual activity for `Cc1ccc(=O)n(-c2ccccc2)c1` ?
Reply: 109

Task item: residual activity for `O=c1c(O)c(-c2ccc(O)c(O)c2)oc2cc(O)c(O)c(O)c12` ?
Reply: 107

Task item: residual activity for `NS(=O)(=O)OC[C@@H]1C[C@@H](n2ccc3c(N[C@H]4CCc5ccccc54)ncnc32)C[C@@H]1O` ?
Reply: 101

Task item: residual activity for `NCC(=O)Nc1ccc(-n2nc(C(F)(F)F)cc2-c2ccc3c(ccc4ccccc43)c2)cc1` ?
Reply: 94

Task item: residual activity for `CNc1nc(-c2ccc3c(N)n[nH]c3c2)cc(N2C[C@@H](C(=O)NC3CCCCC3)CC[C@H]2C)n1` ?
Reply: 99

Task item: residual activity for `O=C(N[C@@H](COc1ccc2[nH]c(=O)[nH]c2c1)c1ccccc1)c1cccn(Cc2ccc(F)c(F)c2)c1=O` ?
Reply: 110

Task item: residual activity for `COc1cc(O)c2c(c1)/C=C/C[C@H](O)[C@H](O)C(=O)/C=C\C[C@H](C)OC2=O` ?
Reply: 92

Task item: residual activity for `O=C(NCCCNc1nc(Nc2cccc(CN3CCOCC3)c2)ncc1C1CC1)C1CCC1` ?
Reply: 85

Task item: residual activity for `CN(C)C/C=C/C(=O)Nc1cccc(C(=O)Nc2ccc(Nc3nccc(-c4cccnc4)n3)cc2)c1` ?
Reply: 103

Task item: residual activity for CNC(=O)C1[C@H]2O[C@@](C)([C@@H]1N)n1c3ccccc3c3c4c(c5c6ccccc6n2c5c31)C(=O)NC4 (some centres undefined) ?
Reply: 6

Task item: residual activity for `Cn1c(=O)c2c(ncn2C)n(C)c1=O` ?
Reply: 110

Task item: residual activity for COc1ccc2c(c1)c1c3c(c4c5ccccc5n(C)c4c1n2CC(O)CN(C)C)C(=O)NC3=O (centres undefined) ?
Reply: 90

Task item: residual activity for `COc1ccc(-n2ncc3cnc(Nc4cc(OC)c(OC)c(OCCCN5CCN(C)CC5)c4)nc32)cc1` ?
Reply: 95

Task item: residual activity for CC1=C(CO)C(=O)O[C@@H]([C@@H](C)[C@H]2CC[C@H]3[C@@H]4C[C@H]5O[C@]56[C@@H](O)C=CC(=O)[C@]6(C)C4CC[C@]23C)C1 (some centres undefined) ?
Reply: 116
